Recorded RP-LC retention time by entry
Test: gradient 5% acetonitrile 3 min, to 50% in 2 min, to 85% in 15 min, held 3 min, 100 µL/min
Details: column: Zorbax Extend-C18 2.1 x 50 mm; eluents: water / acetonitrile, 0.1% formic acid
parameter: RP-LC retention time (s)

# compound, parameter, quantitative.readout
records = [
    ("Cc1ccccc1Cn1nc2ccc(S(=O)(=O)N3CCOCC3)cn2c1=O", "RP-LC retention time", 818),
    ("COc1cccc(-c2cc3c(=O)n(CC(O)c4cccc(C#N)c4)ccn3n2)c1 (stereo not given)", "RP-LC retention time", 796),
    ("O=C(NCc1ccc(F)cc1)N1CC(n2ccnc2)C1", "RP-LC retention time", 577),
    ("Fc1ccc(-c2nnc(Cc3nc(-c4cccc(Br)c4)no3)o2)cc1", "RP-LC retention time", 1090),
    ("COCCc1noc(-c2cnc3nc(C)ccc3c2Nc2cccc(Cl)c2)n1", "RP-LC retention time", 763),
    ("CC(=O)Nc1ccc(-c2noc(C3CCN(C(=O)Cc4c[nH]c5ccccc45)CC3)n2)cc1", "RP-LC retention time", 761),
    ("Cn1cc(CC(=O)NCc2ccc(F)c(Cl)c2)c2cccnc21", "RP-LC retention time", 725),
    ("O=C(Cn1nc2n(c1=O)CCCCC2)NCc1ccc(F)cc1", "RP-LC retention time", 671),
    ("CC1=C(c2ccc(C)cc2)S(=O)(=O)N=C1N1CCC(NC(=O)C2CCCO2)CC1 (stereo not given)", "RP-LC retention time", 902),
    ("CCc1ccc(CNC(=O)CN2C(=O)NC3(CCCCC3)C2=O)cc1", "RP-LC retention time", 792),
    ("COc1ccc(CC(=O)N2CCC3(C2)C(=O)Nc2ccc(OC)cc23)c(Cl)c1 (stereo not given)", "RP-LC retention time", 768),
    ("Cc1sc(-c2cc(C(F)(F)F)on2)cc1S(=O)(=O)N1CCc2ccccc21", "RP-LC retention time", 1270),
    ("CN(Cc1ccsc1)C(=O)Nc1ccc(F)cc1", "RP-LC retention time", 839),
    ("CN1c2cc(F)ccc2C(=O)NC12CCN(C(=O)Nc1ccc(F)cc1F)CC2", "RP-LC retention time", 752),
    ("CCOCCCNC(=O)N1CCc2cc(-c3ccc(C(=O)N4CCOCC4)cc3)ccc21", "RP-LC retention time", 608),
    ("CN(C)C[C@@H]1CN(S(C)(=O)=O)C[C@H]1NC(=O)c1ccsc1", "RP-LC retention time", 569),
    ("CCn1cc(C)c(C(=O)O)c1CC(=O)NCc1ccco1", "RP-LC retention time", 702),
    ("CC(C)c1cc(C(=O)Nc2ccccc2)nn1C1CCS(=O)(=O)C1 (stereo not given)", "RP-LC retention time", 845),
    ("COC1C(=O)N(CC2CC2)C12CCN(S(=O)(=O)Cc1ccccc1)CC2 (stereo not given)", "RP-LC retention time", 819),
    ("CCN(CC)CCNC(=O)C1CCN(c2nnc3ccc(Cl)cn23)CC1", "RP-LC retention time", 565),
    ("O=C(NCc1ccc2c(c1)OCO2)C1CCCN(c2nccn3nc(-c4ccc(F)cc4)cc23)C1 (stereo not given)", "RP-LC retention time", 872),
    ("Cc1cccc(NC(=O)C2CCN(S(=O)(=O)c3cc(C(=O)N4CCCC4)n(C)c3)CC2)c1C", "RP-LC retention time", 843),
    ("Cn1nc(C(=O)N2CCCCC2)c2c1CCN(C(=O)CCC(=O)N1CCC(N3CCCCC3)CC1)C2", "RP-LC retention time", 586),
    ("CS(=O)(=O)N1CCC(C(=O)Nc2cccc(Cl)c2)Oc2ccccc21 (stereo not given)", "RP-LC retention time", 954),
    ("O=C(Nc1ccc2c(c1)CCN2S(=O)(=O)c1ccccc1)Nc1cc(F)ccc1F", "RP-LC retention time", 1070),
]

* * *

Recorded RP-LC retention time by entry
Assay: gradient 5% acetonitrile 3 min, to 50% in 2 min, to 85% in 15 min, held 3 min, 100 µL/min
Conditions: column: Zorbax Extend-C18 2.1 x 50 mm; eluents: water / acetonitrile, 0.1% formic acid

# compound, RP-LC retention time
rows = [
    ("Cc1cc(NC(=O)Nc2cc(F)ccc2F)no1", "894 s"),
    ("CCN1C(=O)c2cc(C(=O)NCCc3ccccc3)nn2CC1(C)C(=O)NC1CCCC1 (centres undefined)", "791 s"),
    ("O=C(Nc1ccc(F)cc1F)c1c(O)c2cccnc2n(-c2ccc(F)cc2)c1=O", "957 s"),
    ("COc1ccc(CCc2nc3nccc(-c4ccc(F)cc4)n3n2)cc1OC", "865 s"),
    ("CCN1CCN(C(=O)C2CCN(c3nc4cccnc4s3)CC2)CC1", "570 s"),
    ("CCN(Cc1ccc(F)cc1)Cc1cc(=O)c2cccc(F)c2[nH]1", "594 s"),
    ("O=C(CCc1ccc2cc[nH]c2c1)N1CCN(c2ccc(Cl)cc2)CC1", "996 s"),
    ("O=C(c1ccc2ccccc2n1)N1CCN(c2cc(-c3cccnc3)[nH]n2)CC1", "602 s"),
    ("O=C(c1nnc(-c2ccc(S(=O)(=O)N3CCCCC3)cc2)o1)N1CCCCC1", "956 s"),
    ("COc1cc(NC(=O)CSc2ccc(N3CCCC(C(=O)NC4CC4)C3)nn2)cc(OC)c1 (centres undefined)", "642 s"),
    ("Cc1noc(-c2ccc(OC3CN(C(=O)Nc4ccccc4)C3)cc2)n1", "737 s"),
    ("O=C(Cn1cnc(-c2cccs2)cc1=O)NCCn1nc(-c2ccco2)ccc1=O", "636 s"),
    ("Cc1cc2c(cc1S(=O)(=O)N1CCCC1C(=O)Nc1cccc(Cl)c1C)OC(C)C(=O)N2 (centres undefined)", "891 s"),
    ("Cc1cc2c(=O)n(CC(=O)Nc3cccc(Br)c3)ccc2s1", "850 s"),
    ("CC(Oc1cccc(Cl)c1)C(=O)NCC1(C)CCOCC1 (centres undefined)", "816 s"),
    ("CN1c2ccc(F)cc2C(=O)NC12CCN(C(=O)c1ccccc1)CC2", "726 s"),
    ("CCCCNc1nc(N)ncc1[N+](=O)[O-]", "790 s"),
    ("COc1ccc2nc(CN3CCN(S(=O)(=O)c4cccs4)CC3)[nH]c2c1", "584 s"),
    ("Cc1nn(C(C)C(=O)N2CCCCCC2)c(=O)c2c(-n3cccc3)n(-c3ccccc3)nc12 (centres undefined)", "1040 s"),
    ("COCCN1CN=C(Nc2nc(C)c3ccccc3n2)NC1", "589 s"),
    ("COc1ccc(NC(=O)c2sc(-c3cn(C(C)C)c4ncccc34)nc2C)c(OC)c1", "1030 s"),
    ("O=C(Nc1ccc(OCC(=O)N2CCN(c3ccccc3Cl)CC2)nc1)C1CC1", "818 s"),
    ("CC(=O)N1CCc2sc(S(=O)(=O)NCc3ccc4c(c3)OCO4)cc2C1", "727 s"),
    ("CCOc1nc2c(c(C)nn2-c2ccccc2)c(C)c1CCC(=O)N1CCN(c2ccccn2)CC1", "822 s"),
    ("CCc1onc(C)c1C1CCCN1C(=O)Nc1ccccc1Cl (centres undefined)", "907 s"),
    ("CCn1cc(-c2nc(CC(=O)Nc3cc(Cl)ccc3OC)cs2)c2cccnc21", "1130 s"),
    ("COCc1nc2cccnc2n1C1CCN(C(=O)Nc2ccc(Br)cc2)CC1", "747 s"),
    ("CCCn1c(=O)sc2cc(S(=O)(=O)N3CCC(C(=O)N(C)Cc4ccco4)CC3)ccc21", "901 s"),
    ("O=C(Nc1ccccc1F)Nc1c(-c2ccccc2)nc2ccccn12", "666 s"),
    ("COc1cccc2c1OC1(C)CC2C(S(=O)(=O)c2ccc(C(C)C)cc2)C(=O)N1C (centres undefined)", "1040 s"),
    ("CC(C)n1cnc(S(=O)(=O)N2CCC(C(=O)N3CCc4ccccc43)CC2)c1", "769 s"),
    ("CCCc1ccc(S(=O)(=O)N2CCC3(CC2)NCCN=C3NCc2ccc(C)cc2)cc1", "846 s"),
    ("O=C(Cc1csc2nc(-c3ccccc3)cn12)N1CCN(c2cccc(Cl)c2)CC1", "949 s"),
    ("CCc1cccc(NC(=O)N2CCCC2c2nc(-c3ccc(OC)cc3)no2)c1 (centres undefined)", "925 s"),
]

* * *

Experiment: gradient 5% acetonitrile 3 min, to 50% in 2 min, to 85% in 15 min, held 3 min, 100 µL/min
Settings: column: Zorbax Extend-C18 2.1 x 50 mm; eluents: water / acetonitrile, 0.1% formic acid

# molecule, RP-LC retention time / s
rows = [
    ("CC(=O)c1sc(NC(=O)c2cc(Cl)ccc2Cl)nc1C", 817),
    ("Cc1ccc(NC(=O)C2(C)CCCCC(=O)N2)cc1 (stereo not drawn)", 696),
    ("Cc1ccc(-c2nc3cccnc3n2CCCNC(=O)Nc2ccc3c(c2)OCCO3)cc1", 698),
    ("CC(=O)c1ccc(NC(=O)C2CC(=O)N(c3ccc4c(c3)CCN4C(C)=O)C2)cc1 (stereo not drawn)", 670),
    ("COc1ccc(-c2nnc(N3CCC(C(=O)NCCN(C)C)CC3)o2)cc1", 594),
    ("CCSc1nnc(NC(=O)CSc2nncn2C)s1", 606),
    ("COC(=O)c1sccc1NC(=O)Cn1c(C)cc(C)c(-c2nc(-c3ccc(C)cc3)no2)c1=O", 1110),
    ("O=C(Nc1ccc2c(c1)OCCO2)[C@@H]1COCC(=O)N1Cc1ccc(F)cc1", 765),
    ("O=C(NCCc1csc(C2CCCN(C(=O)C3CCOC3)C2)n1)C1CC1 (stereo not drawn)", 753),
    ("O=c1c2cc(-c3ccc(F)cc3)nn2ccn1CC(O)c1ccc2c(c1)OCO2 (stereo not drawn)", 864),
    ("CN1CCC2(CC1)CN(C(=O)Nc1ccccc1)CC2c1nc(-c2ccccc2)no1 (stereo not drawn)", 659),
    ("O=C(Nc1nccs1)C1CCN(C(=O)Cn2ccc3ccccc32)CC1", 719),
    ("O=C(NCc1cccc(C(F)(F)F)c1)c1csc(C(=O)NC2CCCC2)n1", 1000),
    ("c1ccc2c(c1)nnn1c3cnccc3nc21", 606),
    ("c1cc(-c2noc(C3CCOCC3)n2)ccc1OC1CNC1", 640),
    ("CCCc1nc(-c2c(C)cc(C)nc2NC(=O)c2cc(C)cc(C)c2)no1", 784),
    ("Cc1noc(C)c1CNC(=O)Cc1ccc(F)cc1", 713),
    ("O=C(Cn1cccc1-c1nnc(-c2ccccc2)o1)N1CCN(c2cccc(Cl)c2)CC1", 1120),
    ("CCOc1ccccc1CNC(=O)CCc1c(-c2ccc(Br)cc2)nc2ccccn12", 744),
    ("O=C(c1cncc(Br)c1)N1CCC(c2nnc(-c3ccco3)s2)CC1", 682),
    ("Cc1ccc2c(c1)C(=O)NC1(CCN(C(=O)NCc3ccc(F)cc3)CC1)N2C", 761),
    ("O=S(=O)(c1ccccc1F)N1CCc2nc(-c3ccccc3)ncc2C1", 1010),
    ("O=C(Nc1cccc(-c2nnc3n2CCCC3)c1)C1(c2ccccc2)CC1", 719),
    ("CCCn1cnc2cc(-c3noc(C(C)NS(=O)(=O)c4ccc(C)cc4)n3)ccc21 (stereo not drawn)", 731),
    ("Cc1cc(C)cc(Nc2nc3ccncc3n(C(C)C)c2=O)c1", 745),
    ("Cc1ccc(NC(=O)C2CCN(S(=O)(=O)c3cc(C(=O)N(C)C)cs3)CC2)cc1Cl", 912),
    ("CCn1ccc2c(cc(C(=O)Nc3ccc(OC)cc3OC)n2C)c1=O", 692),
    ("COc1ccccc1NC(=O)Cn1c(C)nc2onc(C)c2c1=O", 772),
    ("CCn1cnc(S(=O)(=O)N2CCC(C(=O)NCc3ccc(C)cc3)CC2)c1", 797),
    ("Cc1ccccc1S(=O)(=O)N1CCC(CCC(=O)N2CCc3ccccc3C2)CC1", 1060),
    ("CCN(C(=O)Cn1nc(S(=O)(=O)c2ccc(Cl)cc2)ccc1=O)c1ccccc1", 920),
    ("Cc1ccc(C(O)Cn2ccn3nc(-c4cccs4)cc3c2=O)cc1 (stereo not drawn)", 893),
    ("Cc1nn(CCCC(=O)NCCCN2CCCCC2)c(=O)c2c1sc1ccccc12", 645),
]
